tgt: CXCR7 (Homo sapiens, UniProt P25106)
Construct: expressed in transfected cells; host or cells: CHO cells (CHO-CXCR7), transgenes maintained with Hygromycin B and G418
Sequence (P25106 whole entry): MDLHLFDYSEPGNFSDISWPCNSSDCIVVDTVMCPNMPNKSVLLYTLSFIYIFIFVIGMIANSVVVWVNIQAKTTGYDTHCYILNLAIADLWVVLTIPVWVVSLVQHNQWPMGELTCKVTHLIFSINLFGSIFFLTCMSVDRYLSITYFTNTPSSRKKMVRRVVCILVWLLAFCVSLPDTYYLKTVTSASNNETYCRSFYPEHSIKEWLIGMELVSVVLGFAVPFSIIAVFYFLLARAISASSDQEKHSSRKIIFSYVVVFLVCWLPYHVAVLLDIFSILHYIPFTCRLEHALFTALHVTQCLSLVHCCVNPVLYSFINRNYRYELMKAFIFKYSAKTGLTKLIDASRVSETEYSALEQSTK
run.description: CXCR7 β-arrestin recruitment assay in CHO-CXCR7 cells (ProLink/EA β-galactosidase complementation), induced by human SDF-1a
Assay type: cell-based
experimental.setup: assay buffer, SDF-1a at EC50 concentration
Method: CXCR7 is fused in frame with a small enzyme donor fragment ProLink and co-expressed in CHO cells stably expressing a fusion protein of β-arrestin and the larger, N-terminal deletion mutant of β-galactosidase (called enzyme acceptor or EA). […] The β-galactosidase enzyme activity is measured with a substrate that generates fluorescence. […]
pIC50: −log10 of the molar value.
measured.endpoint: pIC50

Requested read-out: pIC50. Entry: CC(C)(NC(=O)CC1(NC(=O)c2ccn(-c3ccc(F)cc3F)n2)CN([C@H]2CC[C@](C)(O)CC2)C1)c1cccc(Cl)c1 [Example 1.056] 4.70 to 6.00

Requested read-out: pIC50. Entry: COc1ccc(F)cc1C(C)(C)NC(=O)CC1(NC(=O)c2cc(-c3ccc(F)cc3F)on2)CN([C@H]2CC[C@](C)(O)CC2)C1 [Example 1.266] > 8.30

Requested read-out: pIC50. Entry: CC(C)(NC(=O)CC1(NC(=O)c2cc(-c3ccc(F)cc3F)on2)CN([C@H]2CCCCC2(C)C)C1)c1ccccn1 [Example 1.275] > 8.30

Requested read-out: pIC50. Entry: CC(C)(NC(=O)CC1(NC(=O)c2cc(-c3ccc(F)cc3F)on2)CN([C@H]2CCC[C@@H](O)C2)C1)c1ccccn1 [Example 1.286] 7.00 to 8.30

Requested read-out: pIC50. Entry: CC(C)(NC(=O)CC1(NC(=O)c2cc(-c3ccc(F)cc3F)on2)CN([C@H]2CC[C@](C)(O)CC2)C1)c1cccnc1 [Example 1.194] 7.00 to 8.30

Requested read-out: pIC50. Entry: C[C@]1(O)CC[C@H](N2CC(CC(=O)NC3(c4ccccn4)CC3)(NC(=O)c3cc(-c4ccc(F)cc4F)on3)C2)CC1 [Example 1.191] 7.00 to 8.30

Requested read-out: pIC50. Entry: C[C@]1(O)CC[C@@H](N2CC(CC(=O)NCc3ccccc3)(NC(=O)c3cc(-c4ccc(F)cc4F)on3)C2)CC1 [Example 1.127] 4.70 to 6.00

Requested read-out: pIC50. Entry: CC(C)(CO)NC(=O)CC1(NC(=O)c2cc(-c3ccc(F)cc3F)on2)CN(C2CCCCC2)C1 [Example 1.309] 6.00 to 7.00
